Test system: Caov-3 cell line
Experiment: Cytotoxicity in human Caov3 cells assessed as reduction in cell viability incubated for 48 hrs by MTT assay
Type: functional, cell-based
Conditions: Caov-3, 48 h
REPORTED ENDPOINT: pIC50
Give bare numbers, as −log10 of the molar value.

Examples from the recorded data:
- COMPOUND: "COc1ccnc(NC(NC(=O)OCCn2c([N+](=O)[O-])cnc2C)C(Cl)(Cl)Cl)n1 (stereo not drawn)"
  pIC50: 3.80
- COMPOUND: "Cc1ncc([N+](=O)[O-])n1CCOC(=O)NC(Nc1nccc2ccccc12)C(Cl)(Cl)Cl (stereo not drawn)"
  pIC50: 4.09
- COMPOUND: "Cn1c([N+](=O)[O-])cnc1COC(=O)NC(n1cnc2c(N)nc(F)nc21)C(Cl)(Cl)Cl (stereo not drawn)"
  pIC50: 6.52

Please state pIC50 for every compound in the list that follows.
1. Cc1ncc([N+](=O)[O-])n1CCOC(=O)NC(Nc1nc(Cl)c(N)c(Cl)n1)C(Cl)(Cl)Cl (stereo not drawn)
2. Cc1c(Cl)nc(NC(NC(=O)OCCn2c([N+](=O)[O-])cnc2C)C(Cl)(Cl)Cl)nc1Cl (stereo not drawn)
3. Nc1nc(N)c2ncn(C(NC(=O)OCCc3ccccn3)C(Cl)(Cl)Cl)c2n1 (stereo not drawn)

Response line:
1. 4.72
2. 4.51
3. 4.53

* * *

System: HeLa
Assay: Cytotoxicity in human HeLa cells assessed as reduction in cell viability incubated for 48 hrs by MTT assay
Type: functional, cell-based
pIC50: −log10 of the molar value.
Respond with satisfied for pIC50 values of 4 and above, not satisfied for values below.

Please review the following examples before continuing.
- MOLECULE: "Cc1ncc([N+](=O)[O-])n1CCOC(=O)NC(Nc1cc2ccccc2cn1)C(Cl)(Cl)Cl (stereo not drawn)"
  LABEL VALUE: "satisfied"
- MOLECULE: "Nc1nc(F)nc2c1ncn2C(NC(=O)OCCc1ccccn1)C(Cl)(Cl)Cl (stereo not drawn)"
  LABEL VALUE: "satisfied"
- MOLECULE: "Cc1ncc([N+](=O)[O-])n1CCOC(=O)NC(Nc1nccc(=O)[nH]1)C(Cl)(Cl)Cl (stereo not drawn)"
  LABEL VALUE: "not satisfied"
- MOLECULE: "Cn1c([N+](=O)[O-])cnc1COC(=O)NC(n1cnc2c(N)nc(F)nc21)C(Cl)(Cl)Cl (stereo not drawn)"
  LABEL VALUE: "satisfied"
- MOLECULE: "Cc1ncc([N+](=O)[O-])n1CCOC(=O)NC(Nc1nc(Cl)c(N)c(Cl)n1)C(Cl)(Cl)Cl (stereo not drawn)"
  LABEL VALUE: "satisfied"

Prompt line: Can Cc1ncc([N+](=O)[O-])n1CCOC(=O)NC(Nc1nccc(N)n1)C(Cl)(Cl)Cl (stereo not drawn) be said to have pIC50 at or above 4?
Response line: not satisfied

Prompt line: Can Nc1nc(F)nc2c1ncn2C(NC(=O)OCCN1CCOCC1)C(Cl)(Cl)Cl (stereo not drawn) be said to have pIC50 at or above 4?
Response line: satisfied

Prompt line: Can Cc1ncc([N+](=O)[O-])n1CCOC(=O)NC(n1cnc2c(Cl)nc(Cl)nc21)C(Cl)(Cl)Cl (stereo not drawn) be said to have pIC50 at or above 4?
Response line: not satisfied

Prompt line: Can Cc1ncc([N+](=O)[O-])n1CCOC(=O)NC(n1cnc2c(N)nc(F)nc21)C(Cl)(Cl)Cl (stereo not drawn) be said to have pIC50 at or above 4?
Response line: satisfied

Prompt line: Can Cc1ncc([N+](=O)[O-])n1CCOC(=O)NC(n1cnc2c(N(C)C)ncnc21)C(Cl)(Cl)Cl (stereo not drawn) be said to have pIC50 at or above 4?
Response line: not satisfied

Prompt line: Can Cc1c(Cl)nc(NC(NC(=O)OCCn2c([N+](=O)[O-])cnc2C)C(Cl)(Cl)Cl)nc1Cl (stereo not drawn) be said to have pIC50 at or above 4?
Response line: satisfied

Prompt line: Can Cc1ncc([N+](=O)[O-])n1CCOC(=O)NC(n1cnc2c(Cl)ncnc21)C(Cl)(Cl)Cl (stereo not drawn) be said to have pIC50 at or above 4?
Response line: not satisfied
